Origin of values: patent US5840918A

tested on: H-ras farnesylation in H-ras (61L) transformed NIH3T3 fibroblasts; assay: Inhibition of H-ras farnesylation in whole cells (Western blot); assay type: cell-based, mouse; settings: Mus musculus, NIH3T3, 24 h, Table 2
Consider the following compounds and their measured IC50 readings.
ASSAY READOUT: IC50

In [3]: df
Out[3]:
                                   compound  assay_readout        value
0  CSCC[C@H](NC(=O)C(/C=C/[C@@H](/C=C/[C@@H](N)CS)C(C)C)C(C)C)C(=O)NC(C)(C)C (stereo partly shown) [PD222]           IC50      > 50 µM
1  CSCCC(NC(=O)C(/C=C\C(/C=C/C(N)CS)C(C)C)Cc1ccccc1)C(=O)O (stereo not shown) [PD311]           IC50  0.1 to 1 µM
2  CSCC[C@H](NC(=O)c1cc(C/C=C/C(N)CS)ccc1-c1cccc(C(F)(F)F)c1)C(=O)O (stereo partly shown) [PM111]           IC50     > 100 µM
3  CC(C)C[C@H](NC(=O)c1cc(C/C=C/C(N)CS)ccc1-c1ccccc1)C(=O)O (stereo partly shown) [PM131]           IC50     > 250 µM

----------
target: FTase (Bos taurus, UniProt P29702+P49355); construct: bovine brain by inference from the cited Moores et al. 1991; experiment: Inhibition of FTase-mediated prenylation (in vitro prenylation assay); conditions: Table 1; partially purified FTase, 3 μM recombinant H-ras, 440 nM [3H]FPP, 15 min 37° C
pIC50: −log10 of the molar value.
Mark Criterion met for reported pIC50 of 8 or greater; mark Criterion not met for anything smaller.

MOLECULE	ASSIGNED CLASS
CSCC[C@H](NC(=O)C(/C=C/[C@@H](/C=C/C(N)CS)C(C)(C)C)C(C)C)C(=O)O (single isomer, unassigned) [PD152]	Criterion not met
CSCC[C@H](NC(=O)C(Cc1cccs1)N(C)C[C@@H](/C=C/C(N)CS)C(C)C)C(=O)O (some centres unmarked) [PA071]	Criterion not met
CCOC(=O)[C@H](CCSC)NC(=O)c1cc(C/C=C/C(N)CS)ccc1-c1ccccc1 (some centres unmarked) [PM151]	Criterion not met
CSCC[C@H](NC(=O)c1cc(CCCC(N)CS)ccc1-c1ccsc1)C(=O)O (some centres unmarked) [PM162]	Criterion met
NC(/C=C/Cc1ccc(-c2ccsc2)c(C(=O)N[C@@H](Cc2cccs2)C(=O)O)c1)CS (some centres unmarked) [PM152]	Criterion not met
CSCC[C@H](NC(=O)C(NC[C@@H](/C=C/C(N)CS)C(C)C)C(C)C)C(=O)O (some centres unmarked) [PA061]	Criterion met
CSCCC(NC(=O)C(C=CC(C=CC(N)CSSCC(N)C=CC(C=CC(Cc1ccccc1)C(=O)NC(CCSC)C(=O)O)C(C)C)C(C)C)Cc1ccccc1)C(=O)O (centres unmarked) [PD212]	Criterion met
C[C@H](/C=C/C(N)CS)/C=C/C(Cc1ccccc1)C(=O)N[C@@H](CCC(N)=O)C(=O)O (some centres unmarked) [PD102]	Criterion not met
CCc1ccc(C/C=C/C(N)CS)cc1C(=O)N[C@@H](CCSC)C(=O)OC (some centres unmarked) [PM212]	Criterion not met

----------
target: FTase (Bos taurus, UniProt P29702+P49355); construct: bovine brain by inference from the cited Moores et al. 1991; assay: Inhibition of FTase-mediated prenylation (in vitro prenylation assay); conditions: Table 1; partially purified FTase, 3 μM recombinant H-ras, 440 nM [3H]FPP, 15 min 37° C
pIC50: −log10 of the molar value.
Consider the following compounds and their measured pIC50 readings.

COMPOUND	pIC50
CSCC[C@H](NC(=O)c1cc(C/C=C/C(N)CS)ccc1-c1ccccc1)C(=O)O (stereo partly shown) [PM061]	8.15
COc1ccc(-c2ccc(C/C=C/[C@@H](N)CS)cc2C(=O)N[C@@H](CCSC)C(=O)O)cc1 [PM011]	5.95
NC(C=CCc1ccc(-c2ccsc2)c(C(=O)NC(Cc2cccs2)C(=O)O)c1)CSSCC(N)C=CCc1ccc(-c2ccsc2)c(C(=O)NC(Cc2cccs2)C(=O)O)c1 (stereo not shown) [PM022]	7.74
COC(=O)[C@H](CCSC)NC(=O)c1cc(C/C=C/[C@@H](N)CS)ccc1-c1ccccc1 [PM041]	6.74
